Data provenance is patent US8101601B2.

Examples of molecules with documented % Test substance after 24 h [F(t = 24 h) × 100/F(t = 0 h)] follow.
protocol.description: Stability in buffer at various pH values (HPLC, 37° C., 24 h)
Type: physicochemical
condition.set: buffer pH 7.4, 37° C., 24 h
Counter-ions that a name gives are not always drawn.
Give the number; % is assumed, so skip it.

[[record]]
molecule = "NCCCC[C@H](N)C(=O)OCC(=O)N(C[C@H]1CN(c2ccc(N3CCOCC3=O)cc2)C(=O)O1)C(=O)c1ccc(Cl)s1 [Example 7, dihydrochloride]"
units_symbol = "%"
measured_value = 3

[[record]]
molecule = "NCCCC(=O)N(C[C@H]1CN(c2ccc(N3CCOCC3=O)cc2)C(=O)O1)C(=O)c1ccc(Cl)s1 [Example 19, hydrochloride]"
units_symbol = "%"
measured_value = 0

[[record]]
molecule = "CC(C)(N)C(=O)OCC(=O)N(C[C@H]1CN(c2ccc(N3CCOCC3=O)cc2)C(=O)O1)C(=O)c1ccc(Cl)s1 [Example 2, hydrochloride]"
units_symbol = "%"
measured_value = 80


Assign % Test substance after 24 h [F(t = 24 h) × 100/F(t = 0 h)] to the following record: CC(C)[C@H](N)C(=O)OCC(=O)N(C[C@H]1CN(c2ccc(N3CCOCC3=O)cc2)C(=O)O1)C(=O)c1ccc(Cl)s1 [Example 3, hydrochloride] 48

Assign % Test substance after 24 h [F(t = 24 h) × 100/F(t = 0 h)] to the following record: O=C(OCC(=O)N(C[C@H]1CN(c2ccc(N3CCOCC3=O)cc2)C(=O)O1)C(=O)c1ccc(Cl)s1)[C@@H]1CCCN1 [Example 4, hydrochloride] 0

Assign % Test substance after 24 h [F(t = 24 h) × 100/F(t = 0 h)] to the following record: NCCCCCC(=O)N(C[C@H]1CN(c2ccc(N3CCOCC3=O)cc2)C(=O)O1)C(=O)c1ccc(Cl)s1 [Example 21, hydrochloride] 66
